# System: MCF-10A
# Test conditions: read-out: Cytotoxic activity IC50, 72 h, mean of three independent experiments ± S.D.
pIC50: −log10 of the molar value.
Readout: pIC50

COc1ccc([C@@H]2c3cc4c(c(OC)c3C[C@H]3COC(=O)[C@@H]32)OCO4)cc1OC [Compound 1, 5′-demethoxy-β-peltatin-A-methylether] :: 6.86
COc1ccc([C@@H]2c3cc4c(cc3C[C@H]3COC(=O)[C@@H]32)OCO4)cc1OC [Compound 3, 5′-demethoxydeoxypodophyllotoxin] :: 7.04

* * *

# System: MCF-7
# Assay: Clonogenicity (recovery) assay, 72 h post-treatment, SRB
# Test conditions: MCF-7, 0.08 µg/mL, 72 h post-treatment
// values below are reported percentage of recovery
Readout: percentage of recovery

COc1cc([C@@H]2c3cc4c(cc3[C@H](OC(C)=O)[C@H]3COC(=O)[C@H]23)OCO4)cc(OC)c1OC [Compound 2, acetylpodophyllotoxin] :: 209% ± 12.4%
COc1cc(C2=C3C(=O)OC[C@@H]3[C@@H](OC(C)=O)c3cc4c(cc32)OCO4)cc(OC)c1OC [Compound 4, 7′,8′-dehydroacetylpodophyllotoxin] :: 177% ± 15.6%
COc1ccc([C@@H]2c3cc4c(cc3C[C@H]3COC(=O)[C@@H]32)OCO4)cc1OC [Compound 3, 5′-demethoxydeoxypodophyllotoxin] :: 111% ± 13%
COc1ccc([C@@H]2c3cc4c(c(OC)c3C[C@H]3COC(=O)[C@@H]32)OCO4)cc1OC [Compound 1, 5′-demethoxy-β-peltatin-A-methylether] :: 172% ± 24.5%
COc1cc([C@@H]2c3cc4c(cc3[C@@H](O[C@@H]3O[C@@H]5CO[C@@H](C)O[C@H]5[C@H](O)[C@H]3O)[C@H]3COC(=O)[C@H]23)OCO4)cc(OC)c1O [VP-16, etoposide, reference compound] :: 183% ± 7.4%

* * *

# Test system: MCF-10A
# Test conditions: 0.08 µg/mL, 72 h
Below, each entry is listed with its recorded percentage of survival.
Readout: percentage of survival

COc1cc([C@@H]2c3cc4c(cc3[C@@H](O[C@@H]3O[C@@H]5CO[C@@H](C)O[C@H]5[C@H](O)[C@H]3O)[C@H]3COC(=O)[C@H]23)OCO4)cc(OC)c1O [VP-16, etoposide, reference compound] :: 46% ± 2.8%
COc1ccc([C@@H]2c3cc4c(c(OC)c3C[C@H]3COC(=O)[C@@H]32)OCO4)cc1OC [Compound 1, 5′-demethoxy-β-peltatin-A-methylether] :: 61% ± 7.9%
COc1cc([C@@H]2c3cc4c(cc3[C@H](OC(C)=O)[C@H]3COC(=O)[C@H]23)OCO4)cc(OC)c1OC [Compound 2, acetylpodophyllotoxin] :: 61% ± 7.8%

* * *

Entries and their IC50 at 72 h values follow.
# Assay: in vitro
# Test conditions: human, Cytotoxic activity IC50, MCF-10A, 72 h, mean of three independent experiments ± S.D.
Readout: IC50 at 72 h (nM)

COc1cc([C@@H]2c3cc4c(cc3[C@H](OC(C)=O)[C@H]3COC(=O)[C@H]23)OCO4)cc(OC)c1OC :: 318
COc1ccc([C@@H]2c3cc4c(c(OC)c3C[C@H]3COC(=O)[C@@H]32)OCO4)cc1OC :: 130
COc1cc(C2=C3C(=O)OC[C@@H]3[C@@H](OC(C)=O)c3cc4c(cc32)OCO4)cc(OC)c1OC [Compound 4, 7′,8′-dehydroacetylpodophyllotoxin] :: 468
COc1ccc([C@@H]2c3cc4c(cc3C[C@H]3COC(=O)[C@@H]32)OCO4)cc1OC :: 90

* * *

# Test system: MCF-7
# Test conditions: IC50 MCF-10A / IC50 MCF-7
Readout: Selectivity index

COc1cc(C2=C3C(=O)OC[C@@H]3[C@@H](OC(C)=O)c3cc4c(cc32)OCO4)cc(OC)c1OC [Compound 4, 7′,8′-dehydroacetylpodophyllotoxin] :: 1.32
COc1ccc([C@@H]2c3cc4c(cc3C[C@H]3COC(=O)[C@@H]32)OCO4)cc1OC :: 2.33
COc1cc([C@@H]2c3cc4c(cc3[C@H](O)[C@H]3COC(=O)[C@H]23)OCO4)cc(OC)c1OC [POD, Podophyllotoxin, reference compound] :: 1.11
COc1cc([C@@H]2c3cc4c(cc3[C@H](OC(C)=O)[C@H]3COC(=O)[C@H]23)OCO4)cc(OC)c1OC :: 2.42
COc1ccc([C@@H]2c3cc4c(c(OC)c3C[C@H]3COC(=O)[C@@H]32)OCO4)cc1OC :: 0.02
COc1cc([C@@H]2c3cc4c(cc3[C@@H](O[C@@H]3O[C@@H]5CO[C@@H](C)O[C@H]5[C@H](O)[C@H]3O)[C@H]3COC(=O)[C@H]23)OCO4)cc(OC)c1O [VP-16, etoposide, reference compound] :: 0.38

* * *

# reported IC50; entries follow
# System: MCF-7
# Test conditions: read-out: Cytotoxic activity IC50; MCF-7, 72 h, mean of three independent experiments ± S.D.
Readout: IC50

COc1cc([C@@H]2c3cc4c(cc3[C@@H](O[C@@H]3O[C@@H]5CO[C@@H](C)O[C@H]5[C@H](O)[C@H]3O)[C@H]3COC(=O)[C@H]23)OCO4)cc(OC)c1O [VP-16, etoposide, reference compound] :: 124 nM
COc1cc([C@@H]2c3cc4c(cc3[C@H](O)[C@H]3COC(=O)[C@H]23)OCO4)cc(OC)c1OC [POD, Podophyllotoxin, reference compound] :: 18 nM
COc1ccc([C@@H]2c3cc4c(cc3C[C@H]3COC(=O)[C@@H]32)OCO4)cc1OC [Compound 3, 5′-demethoxydeoxypodophyllotoxin] :: 40 nM
COc1cc([C@@H]2c3cc4c(cc3[C@H](OC(C)=O)[C@H]3COC(=O)[C@H]23)OCO4)cc(OC)c1OC [Compound 2, acetylpodophyllotoxin] :: 132 nM

* * *

# Tested on: MDA-MB-231
# Test conditions: IC50 MCF-10A / IC50 MDA-MB-231
Readout: Selectivity index

COc1cc([C@@H]2c3cc4c(cc3[C@@H](O[C@@H]3O[C@@H]5CO[C@@H](C)O[C@H]5[C@H](O)[C@H]3O)[C@H]3COC(=O)[C@H]23)OCO4)cc(OC)c1O [VP-16, etoposide, reference compound] :: 1.20
COc1cc([C@@H]2c3cc4c(cc3[C@H](O)[C@H]3COC(=O)[C@H]23)OCO4)cc(OC)c1OC [POD, Podophyllotoxin, reference compound] :: 0.81
COc1cc(C2=C3C(=O)OC[C@@H]3[C@@H](OC(C)=O)c3cc4c(cc32)OCO4)cc(OC)c1OC [Compound 4, 7′,8′-dehydroacetylpodophyllotoxin] :: 2.90
COc1ccc([C@@H]2c3cc4c(cc3C[C@H]3COC(=O)[C@@H]32)OCO4)cc1OC [Compound 3, 5′-demethoxydeoxypodophyllotoxin] :: 0.64
COc1ccc([C@@H]2c3cc4c(c(OC)c3C[C@H]3COC(=O)[C@@H]32)OCO4)cc1OC [Compound 1, 5′-demethoxy-β-peltatin-A-methylether] :: 0.06
COc1cc([C@@H]2c3cc4c(cc3[C@H](OC(C)=O)[C@H]3COC(=O)[C@H]23)OCO4)cc(OC)c1OC [Compound 2, acetylpodophyllotoxin] :: 1.77

* * *

# Assay: in vitro
# Test conditions: human, MCF-10A cells, Cytotoxic activity IC50, MCF-10A, 72 h, mean of three independent experiments ± S.D.
Readout: IC50 at 72 h (nM)

COc1cc([C@@H]2c3cc4c(cc3[C@@H](O[C@@H]3O[C@@H]5CO[C@@H](C)O[C@H]5[C@H](O)[C@H]3O)[C@H]3COC(=O)[C@H]23)OCO4)cc(OC)c1O [VP-16, etoposide, reference compound] :: 47

* * *

// reported percentage of recovery per item
# System: MDA-MB-231
# Assay: Clonogenicity (recovery) assay, 72 h post-treatment, SRB
# Test conditions: MDA-MB-231, 0.4 µg/mL, 72 h post-treatment
Readout: percentage of recovery

COc1ccc([C@@H]2c3cc4c(c(OC)c3C[C@H]3COC(=O)[C@@H]32)OCO4)cc1OC [Compound 1, 5′-demethoxy-β-peltatin-A-methylether] :: 49% ± 18.6%
COc1cc(C2=C3C(=O)OC[C@@H]3[C@@H](OC(C)=O)c3cc4c(cc32)OCO4)cc(OC)c1OC [Compound 4, 7′,8′-dehydroacetylpodophyllotoxin] :: 75% ± 12.2%
COc1cc([C@@H]2c3cc4c(cc3[C@@H](O[C@@H]3O[C@@H]5CO[C@@H](C)O[C@H]5[C@H](O)[C@H]3O)[C@H]3COC(=O)[C@H]23)OCO4)cc(OC)c1O [VP-16, etoposide, reference compound] :: 98% ± 16.1%
COc1cc([C@@H]2c3cc4c(cc3[C@H](OC(C)=O)[C@H]3COC(=O)[C@H]23)OCO4)cc(OC)c1OC [Compound 2, acetylpodophyllotoxin] :: 36% ± 16.8%
